Source of measurements: patent US20060178435A1

biological target: human Mcl-1 protein (amino acids 171-327) (Homo sapiens); construct: The fragment encoding amino acids 171-327 was cloned into the pHis-TEV vector; 8xHis (N); made in house; host or cells: E. coli BL21(DE3); assay: Fluorescence polarization binding assay for the Mcl-1 protein (Flu-Bid-21 probe)
Sequence (Q07820 171-327): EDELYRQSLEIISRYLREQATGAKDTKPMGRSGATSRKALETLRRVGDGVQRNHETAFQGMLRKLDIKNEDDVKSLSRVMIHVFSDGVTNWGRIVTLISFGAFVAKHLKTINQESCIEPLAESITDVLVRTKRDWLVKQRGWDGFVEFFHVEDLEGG
measurement.kind: Ki (nM)
Return type: number; implicit unit nM.

For the compound shown here, CC1=C(C2=C(C)C(=O)c3c(cc(O)c(O)c3C(C)C)C2=O)C(=O)c2cc(O)c(O)c(C(C)C)c2C1=O (racemic) [apogossypolone] , give the reported Ki. 51

###

# reported pKi; entries follow
biological target: recombinant human Bcl-2 (Homo sapiens, UniProt P10415); test: Fluorescence polarization binding assay for Bcl-2 (Bid-FAM peptide displacement)
Sequence (P10415 92-205 limits assumed): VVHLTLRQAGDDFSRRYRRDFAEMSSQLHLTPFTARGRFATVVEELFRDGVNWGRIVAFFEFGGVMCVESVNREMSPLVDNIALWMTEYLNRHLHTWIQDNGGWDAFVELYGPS
Scale for pKi: -log10 of concentration given in mol/L; no unit attached.

Which pKi is reported with recombinant human Bcl-2 (Homo sapiens, UniProt P10415) for this entry: CC1=C(C2=C(C)C(=O)c3c(cc(O)c(O)c3C(C)C)C2=O)C(=O)c2cc(O)c(O)c(C(C)C)c2C1=O (racemic) [apogossypolone] ? 7.12

Which pKi is reported with recombinant human Bcl-2 (Homo sapiens, UniProt P10415) for this entry: Cc1cc2c(C(C)C)c(O)c(O)cc2c(O)c1-c1c(C)cc2c(C(C)C)c(O)c(O)cc2c1O [apogossypol] ? 6.70
